Numbers sourced from ChEMBL document CHEMBL5375992.

- study.target: Protein cereblon/Zinc finger protein Helios (Homo sapiens) (UniProt Q96SW2+Q9UKS7)
- Sequence (Q96SW2 whole entry, looked up): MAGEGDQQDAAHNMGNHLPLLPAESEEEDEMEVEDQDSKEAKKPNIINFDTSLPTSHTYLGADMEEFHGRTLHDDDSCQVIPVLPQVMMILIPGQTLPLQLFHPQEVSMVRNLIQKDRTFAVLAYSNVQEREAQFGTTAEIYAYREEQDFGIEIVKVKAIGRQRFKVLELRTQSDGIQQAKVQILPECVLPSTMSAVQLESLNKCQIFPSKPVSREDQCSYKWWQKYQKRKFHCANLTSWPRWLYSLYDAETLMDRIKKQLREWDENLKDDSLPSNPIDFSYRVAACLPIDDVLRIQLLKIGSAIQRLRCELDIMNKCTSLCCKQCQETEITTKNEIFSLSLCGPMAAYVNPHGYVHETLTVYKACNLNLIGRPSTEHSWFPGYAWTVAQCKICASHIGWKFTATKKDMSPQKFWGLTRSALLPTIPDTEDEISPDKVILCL
- Sequence (Q9UKS7 whole entry, looked up): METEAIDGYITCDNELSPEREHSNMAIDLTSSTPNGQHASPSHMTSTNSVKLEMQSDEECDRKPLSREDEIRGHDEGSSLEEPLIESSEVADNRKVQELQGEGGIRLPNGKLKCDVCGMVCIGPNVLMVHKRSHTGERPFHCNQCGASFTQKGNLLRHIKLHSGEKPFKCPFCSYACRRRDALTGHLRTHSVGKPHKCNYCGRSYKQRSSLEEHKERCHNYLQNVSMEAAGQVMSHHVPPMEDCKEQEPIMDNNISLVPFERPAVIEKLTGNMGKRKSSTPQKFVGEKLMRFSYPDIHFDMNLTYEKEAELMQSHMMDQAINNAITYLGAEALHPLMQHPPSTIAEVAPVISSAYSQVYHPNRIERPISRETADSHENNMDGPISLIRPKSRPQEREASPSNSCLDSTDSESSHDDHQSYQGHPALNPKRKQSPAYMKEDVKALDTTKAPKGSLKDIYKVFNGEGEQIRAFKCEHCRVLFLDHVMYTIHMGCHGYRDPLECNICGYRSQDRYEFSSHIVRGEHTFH
- test.details: Protac activity at CRBN/IKZF2 (unknown origin) transfected in HEK293T cells at 100 nM incubated for 24 hrs by flow cytometry analysis relative to control
- Format: cell-based
measurement.label: Activity (%)

INSERT INTO measurements (molecule, measurement_label, assay_result) VALUES
  ('O=C1CCC(N2Cc3cc(NC(=O)c4ccc5occc5c4)ccc3C2=O)C(=O)N1 (centres undefined)', 'Activity', 81),
  ('COc1cc2ccc(C(=O)Nc3ccc4c(c3)CN(C3CCC(=O)NC3=O)C4=O)cc2cn1 (centres undefined)', 'Activity', 88),
  ('O=C1CCC(N2Cc3cc(NC(=O)c4cccc(Oc5ccccc5)c4)ccc3C2=O)C(=O)N1 (centres undefined)', 'Activity', 74),
  ('COc1ccc2cc(C(=O)Nc3ccc4c(c3)CN(C3CCC(=O)NC3=O)C4=O)cnc2c1 (centres undefined)', 'Activity', 73);
